SUBJECT_OF_TEST: human AC (Homo sapiens, UniProt Q13510)
Sequence (Q13510 22-395): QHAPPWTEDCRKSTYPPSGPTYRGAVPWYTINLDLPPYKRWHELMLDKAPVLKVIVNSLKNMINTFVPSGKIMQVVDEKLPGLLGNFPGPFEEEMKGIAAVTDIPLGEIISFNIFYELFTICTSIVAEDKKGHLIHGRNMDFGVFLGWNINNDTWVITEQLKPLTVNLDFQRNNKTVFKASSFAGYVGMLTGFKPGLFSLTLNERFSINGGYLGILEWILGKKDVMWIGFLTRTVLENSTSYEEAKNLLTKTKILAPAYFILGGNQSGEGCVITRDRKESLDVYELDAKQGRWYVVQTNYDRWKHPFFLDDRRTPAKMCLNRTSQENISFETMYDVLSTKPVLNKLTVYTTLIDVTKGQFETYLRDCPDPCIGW
TEST: h-AC inhibition, UPLC-MS-based assay
Format: biochemical
REPORTED_CONDITIONS: h–AC IC50 (μM) ± SD, LC/MS method; mean of three or more determinations
PROPERTY_NAME: IC50 (µM)

CCCCCCCCC(=O)N[C@@H]1CNC1=O [Compound 12h, N–[(R)–2–Oxoazetidin–3–yl]–nonanamide] ... 27.8

1 = CCCCCCCCC(=O)N[C@H]1CNC1=O [Compound 11h, N–[(S)–2–Oxoazetidin–3–yl]–nonanamide]
2 = CCCCCCCCCCC(=O)N[C@H]1CNC1=O [Compound 11p, N–[(S)–2–Oxoazetidin–3–yl]–undecanamide]
Q: Compare 1 and 2 by numeric IC50 and name the larger one. Answer by stating the label of the chosen item.
A: 1

====

TEST: Plasma pharmacokinetics in rats after IV or oral dosing
Assay type: in vivo
REPORTED_CONDITIONS: rat, iv, 3 mg/kg
PROPERTY_NAME: clearance (mL/min/kg)
The answer is to be given in mL/min/kg; state only the numeric part.

Q: Give the reported clearance for this compound. CCCCCCCCC(=O)N[C@H]1CNC1=O [Compound 11h, N–[(S)–2–Oxoazetidin–3–yl]–nonanamide]
A: 702

====

SUBJECT_OF_TEST: UniProt:Q02083
TEST: h-NAAA inhibition, UPLC-MS-based assay
Format: biochemical
REPORTED_CONDITIONS: h–NAAA IC50 (μM) ± SD, LC/MS method; mean of three or more determinations
Sequence (Q02083 29-359): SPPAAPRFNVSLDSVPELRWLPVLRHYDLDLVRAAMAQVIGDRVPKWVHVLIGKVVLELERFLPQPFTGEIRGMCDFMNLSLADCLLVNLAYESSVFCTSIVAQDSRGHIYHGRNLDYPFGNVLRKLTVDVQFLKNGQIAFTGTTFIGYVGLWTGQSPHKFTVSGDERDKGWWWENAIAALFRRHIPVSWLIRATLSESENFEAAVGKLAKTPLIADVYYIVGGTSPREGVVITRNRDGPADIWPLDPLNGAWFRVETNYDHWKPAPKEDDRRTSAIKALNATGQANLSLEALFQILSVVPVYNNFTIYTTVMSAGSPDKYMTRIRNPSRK
PROPERTY_NAME: IC50 (µM)

CCCCCCCCCCC(=O)N[C@H]1CNC1=O [Compound 11p, N–[(S)–2–Oxoazetidin–3–yl]–undecanamide] ... 0.056

I = CCCCCCCCC(=O)N[C@H]1CNC1=O [Compound 11h, N–[(S)–2–Oxoazetidin–3–yl]–nonanamide]
II = CCCCCCCCC(=O)N[C@@H]1CNC1=O [Compound 12h, N–[(R)–2–Oxoazetidin–3–yl]–nonanamide]
Q: Lab note: check whether I or II shows the higher recorded IC50. Answer by quoting the chosen item's label.
A: II

====

TEST: Plasma pharmacokinetics in rats after IV or oral dosing
Type: in vivo
REPORTED_CONDITIONS: rat, iv, 3 mg/kg
PROPERTY_NAME: Tmax (min)
Response body: numeric value in min, unit text excluded.

Q: State its Tmax for this molecule: CCCCCCCCC(=O)N[C@H]1CNC1=O [Compound 11h, N–[(S)–2–Oxoazetidin–3–yl]–nonanamide]
A: 4.8

====

SUBJECT_OF_TEST: UniProt Q02083
TEST: Fluorogenic h-NAAA assay
Format: biochemical
Sequence (Q02083 126-359 limits assumed): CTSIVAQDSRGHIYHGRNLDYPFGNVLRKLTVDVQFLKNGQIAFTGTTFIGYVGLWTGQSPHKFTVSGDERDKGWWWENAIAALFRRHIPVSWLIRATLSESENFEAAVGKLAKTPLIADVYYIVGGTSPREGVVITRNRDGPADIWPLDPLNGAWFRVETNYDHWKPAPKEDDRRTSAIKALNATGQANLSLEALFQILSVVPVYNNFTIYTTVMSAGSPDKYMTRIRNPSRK
Sequence (Q02083 29-125 limits assumed): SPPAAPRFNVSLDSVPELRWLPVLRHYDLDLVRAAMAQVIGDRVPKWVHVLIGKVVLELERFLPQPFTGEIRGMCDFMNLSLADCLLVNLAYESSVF
PROPERTY_NAME: IC50 (µM)

C[C@@H]1OC(=O)[C@@H]1NC(=O)OCCCCCc1ccccc1 [Compound 2, reference compound] ... 0.047

1 = CCCCc1ccc(C(=O)N[C@H]2CNC2=O)cc1 [Compound 11k]
2 = CCCCCCCC(=O)N[C@H]1CNC1=O [Compound 11g, N–[(S)–2–Oxoazetidin–3–yl]–octanamide]
3 = CCCCCCC(=O)N[C@H]1CNC1=O [Compound 11f, N–[(S)–2–Oxoazetidin–3–yl]–heptanamide]
4 = CCCCC/C=C\CC(=O)N[C@H]1CNC1=O [Compound 11j]
Q: Please list these compounds in decreasing order of IC50. Your answer should be the labels, listed in the requested order.
A: 3, 1, 4, 2
